Numbers sourced from patent US8012979B2.

Target: human active recombinant p38α-6His tagged (Homo sapiens, UniProt Q16539)
Construct: 6His
Sequence (Q16539 whole entry): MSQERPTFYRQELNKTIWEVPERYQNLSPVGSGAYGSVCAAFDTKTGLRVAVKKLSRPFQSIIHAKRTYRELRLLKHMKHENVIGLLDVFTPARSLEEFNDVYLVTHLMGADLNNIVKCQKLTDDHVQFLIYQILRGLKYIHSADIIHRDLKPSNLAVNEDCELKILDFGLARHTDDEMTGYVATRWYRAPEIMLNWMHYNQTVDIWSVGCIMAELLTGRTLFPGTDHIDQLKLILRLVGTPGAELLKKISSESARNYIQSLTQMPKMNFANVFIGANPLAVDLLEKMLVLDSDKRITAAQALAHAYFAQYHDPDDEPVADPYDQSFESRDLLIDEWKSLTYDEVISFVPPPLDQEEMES
Assay: p38 Alpha Enzyme Assay (AlphaScreen, biotinylated-ATF2 substrate)
Assay type: biochemical
Details: pre-incubated 4 hours at 37° C., reaction initiated with ATP; 0.5 nM enzyme; read-out: p38 pIC50 (converted)
property: IC50 (nM)

Use these answered entries as a reference point.
molecule	IC50 [nM]
Cc1c(F)cc(C(=O)NC2CC2)cc1-c1ccc2c(=O)n(CC3CC3)cc(CN3CCC(N)CC3)c2c1 [Example 83]	0.0794
Cc1ccc(C(=O)NC2CC2)cc1-c1ccc2c(=O)n(Cc3ccc(CN(C)C)cc3)c(C)cc2c1 [Example 96]	10
Cc1ccc(C(=O)NC2CC2)cc1-c1ccc2c(=O)n(CC3CC3)cc(CN3CCCN(C)CC3)c2c1 [Example 59]	0.316

a: Cc1c(F)cc(C(=O)NC2CC2)cc1-c1ccc2c(=O)n(Cc3ccc(S(C)(=O)=O)cc3)cc(CN3CCN(C)CC3)c2c1 [Example 112]
b: Cc1ccc(C(=O)NC2CC2)cc1-c1ccc2c(=O)n(Cc3cccc(OCCCN(C)C)c3)c(C)cc2c1 [Example 94]
c: Cc1ccc(C(=O)NC2CC2)cc1-c1ccc2c(=O)n(Cc3ccc(CN(C)C(C)(C)C)cc3)ccc2c1 [Example 27]
d: Cc1ccc(C(=O)NC2CC2)cc1-c1ccc2c(=O)n(CC3CC3)cc(C(=O)N3CC[C@H](N)C3)c2c1 [Example 43]
e: Cc1ccc(C(=O)NC2CC2)cc1-c1ccc2c(=O)n(Cc3ccncc3)cc(C(=O)N3CCC(N)CC3)c2c1 [Example 58]
Prompt: Given 5 molecules, produce a descending ranking by IC50. Order the labels as requested and list them.
Response: d, b, e, c, a

I: Cc1ccc(C(=O)NC2CC2)cc1-c1ccc2c(=O)n(Cc3ccccc3)cc(C(=O)NCCN3CCCC3)c2c1 [Example 49]
II: Cc1c(F)cc(C(=O)NC2CC2)cc1-c1ccc2c(=O)n(CC3CC3)cc(CN3CCNC[C@H]3C)c2c1 [Example 86]
Prompt: Form: Entry with minimum IC50 (choose one): I / II Lab note: record the label of whichever item you select.
Response: II
(II: 0.0794 nM, I: 3.16 nM)
